# System: EKVX
# Protocol Details: relative viability (nuclei count vs DMSO), 5 days (fraction); higher = more cells survive
# Condition: first compound 0.2 µM
Each record here notes measured relative viability.
Quantity Measured: relative viability

# Compound, Readout Value
measured = [
    ("CN1CCN(CCOc2cc(OC3CCOCC3)c3c(Nc4c(Cl)ccc5c4OCO5)ncnc3c2)CC1 [Saracatinib] + CC1(C)CCC(c2ccc(Cl)cc2)=C(CN2CCN(c3ccc(C(=O)NS(=O)(=O)c4ccc(N[C@H](CCN5CCOCC5)CSc5ccccc5)c(S(=O)(=O)C(F)(F)F)c4)cc3)CC2)C1 [Navitoclax] (partner 0.5 µM)", 0.88),
    ("Cc1csc(=NC2CCCCC2)n1/N=C/c1ccc(O)c(O)c1O [MIM1] + C[C@]1(O)C[C@@H](c2nc(-c3ccc4ccc(-c5ccccc5)nc4c3)c3c(N)nccn32)C1 [Linsitinib] (partner 1 µM)", 1.03),
]
